# assayMethodText: Tmax in diet-induced obese mouse at 25 mg/kg administered as suspension
# Assay type: ADME, organism-based
# Set-up: dose 25 mg/kg
# conditionDetails: in vivo
endpoint: Tmax (h)
Write down the numeric answer in h and omit the unit.

Query: Look up Tmax: O=C(Nc1ccc(C2CCN(C(=O)C3CC3)CC2)cc1)c1nc(-c2ccccc2)oc1C(F)(F)F
Result: 1

###

# assayMethodText: Cmax in Hanover Wistar rat at 10 mg/kg, po by LC-MS/MS
# Type: ADME, organism-based
# Set-up: dose 10 mg/kg, route oral
# conditionDetails: in vivo
endpoint: Cmax (µM)
Write down the numeric answer in µM and omit the unit.

Query: Look up Cmax: O=C(Nc1ccc(C2CCN(C(=O)[C@H]3CC[C@H](C(=O)O)CC3)CC2)cc1)c1nc(-c2ccccc2)oc1C(F)(F)F
Result: 34.8

###

# targetSystem: UniProt P11712
# Sequence (P11712 whole entry): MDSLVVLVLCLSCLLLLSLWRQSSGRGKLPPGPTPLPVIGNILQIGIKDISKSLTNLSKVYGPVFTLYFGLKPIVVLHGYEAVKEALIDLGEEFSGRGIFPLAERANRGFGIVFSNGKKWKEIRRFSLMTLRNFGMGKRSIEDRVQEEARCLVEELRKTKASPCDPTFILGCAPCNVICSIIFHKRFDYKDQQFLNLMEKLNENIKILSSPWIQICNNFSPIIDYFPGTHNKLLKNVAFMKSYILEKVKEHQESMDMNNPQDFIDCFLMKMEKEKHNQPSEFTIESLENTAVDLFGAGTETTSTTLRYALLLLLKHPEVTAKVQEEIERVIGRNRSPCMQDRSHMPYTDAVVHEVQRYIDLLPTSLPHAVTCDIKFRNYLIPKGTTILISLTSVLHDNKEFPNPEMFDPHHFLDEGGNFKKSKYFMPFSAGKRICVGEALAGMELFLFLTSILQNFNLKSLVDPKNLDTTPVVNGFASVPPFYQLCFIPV
pIC50: −log10 of the molar value.
endpoint: pIC50

Query: Look up pIC50: O=C(Nc1ccc(C2CCN(C(=O)[C@H]3CC[C@H](C(=O)O)CC3)CC2)cc1)c1nc(-c2ccccc2)oc1C(F)(F)F
Result: < 4.30

###

# assayMethodText: Cmax in diet-induced obese rat at 3 mg/kg, po administered once daily for 3 weeks
# Type: ADME, organism-based
# Parameters: dose 3 mg/kg, route oral
# conditionDetails: in vivo
endpoint: Cmax

Query: Look up Cmax: O=C(Nc1ccc(C2CCN(C(=O)[C@H]3CC[C@H](C(=O)O)CC3)CC2)cc1)c1nc(-c2ccccc2)oc1C(F)(F)F
Result: 15.1 µM

###

# assayMethodText: Permeability across human Caco2 cells
# Type: ADME, cell-based
# conditionDetails: Caco-2, read-out: permeability
endpoint: Papp (×10⁻⁶ cm/s)
Write down the numeric answer in ×10⁻⁶ cm/s and omit the unit.

Query: Look up Papp: O=C(Nc1ccc(C2CCN(C(=O)[C@H]3CC[C@H](C(=O)O)CC3)CC2)cc1)c1nc(-c2ccccc2)oc1C(F)(F)F
Result: 24.5

###

# assayMethodText: Association constant pKa of the compound
# Type: physicochemical
endpoint: pKa
Reply with the value as a number alone.

Query: Look up pKa: O=C(Nc1ccc(C2CCN(C(=O)[C@H]3CC[C@H](C(=O)O)CC3)CC2)cc1)c1nc(-c2ccccc2)oc1C(F)(F)F
Result: 5.78

###

# assayMethodText: Oral bioavailability in Hanover Wistar rat at 10 mg/kg
# Assay type: ADME, organism-based
# conditionDetails: in vivo
endpoint: bioavailability (%)
Write down the numeric answer in % and omit the unit.

Query: Look up bioavailability: O=C(Nc1ccc(C2CCN(C(=O)[C@H]3CC[C@H](C(=O)O)CC3)CC2)cc1)c1nc(-c2ccccc2)oc1C(F)(F)F
Result: 73

###

# targetSystem: hERG (Homo sapiens, UniProt Q12809)
# Sequence (Q12809 whole entry): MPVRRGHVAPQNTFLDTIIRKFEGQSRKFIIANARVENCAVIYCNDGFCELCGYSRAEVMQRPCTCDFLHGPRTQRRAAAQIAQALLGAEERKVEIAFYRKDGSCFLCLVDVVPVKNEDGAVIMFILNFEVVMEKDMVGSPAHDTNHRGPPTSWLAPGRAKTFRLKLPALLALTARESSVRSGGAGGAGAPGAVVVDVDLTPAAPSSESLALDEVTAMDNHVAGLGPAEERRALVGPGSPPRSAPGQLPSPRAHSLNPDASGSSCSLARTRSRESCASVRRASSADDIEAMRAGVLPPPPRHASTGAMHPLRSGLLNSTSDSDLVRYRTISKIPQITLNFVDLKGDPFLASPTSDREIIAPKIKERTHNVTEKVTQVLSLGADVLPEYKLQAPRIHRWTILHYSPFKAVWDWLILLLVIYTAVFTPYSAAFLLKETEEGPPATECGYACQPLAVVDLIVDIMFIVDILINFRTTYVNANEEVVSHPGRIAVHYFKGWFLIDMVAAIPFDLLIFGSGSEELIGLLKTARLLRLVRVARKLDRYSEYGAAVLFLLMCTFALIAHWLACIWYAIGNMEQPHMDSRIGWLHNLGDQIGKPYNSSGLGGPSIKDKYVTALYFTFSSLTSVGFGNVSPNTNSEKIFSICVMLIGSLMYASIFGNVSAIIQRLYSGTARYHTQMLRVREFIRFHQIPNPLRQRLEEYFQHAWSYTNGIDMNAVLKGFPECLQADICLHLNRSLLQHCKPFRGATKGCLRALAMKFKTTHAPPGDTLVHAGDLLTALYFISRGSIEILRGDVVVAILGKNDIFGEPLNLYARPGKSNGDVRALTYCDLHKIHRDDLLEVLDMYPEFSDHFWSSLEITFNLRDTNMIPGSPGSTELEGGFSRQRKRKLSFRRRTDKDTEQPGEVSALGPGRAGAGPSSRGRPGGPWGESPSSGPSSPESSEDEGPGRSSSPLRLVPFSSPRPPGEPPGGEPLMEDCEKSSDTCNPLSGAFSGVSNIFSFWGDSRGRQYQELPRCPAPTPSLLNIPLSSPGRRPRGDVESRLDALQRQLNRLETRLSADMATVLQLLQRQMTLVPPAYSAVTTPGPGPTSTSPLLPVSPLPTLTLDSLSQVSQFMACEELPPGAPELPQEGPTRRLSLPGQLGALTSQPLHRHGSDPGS
# assayMethodText: Inhibition of human ERG-mediated current expressed in CHO cells at 30 uM by patch clamp method
# Type: cell-based
# conditionDetails: CHO cells expressing human ERG
endpoint: inhibition at 30 µM (%)
Write down the numeric answer in % and omit the unit.

Query: Look up inhibition at 30 µM: COCCN(C)c1ccc(NC(=O)c2nc(C)oc2C(F)(F)F)cn1
Result: 37

Query: Look up inhibition at 30 µM: O=C(O)COC1CN(c2ccc(NC(=O)c3nc(-c4ccccc4)oc3C(F)(F)F)cn2)C1
Result: 12

Alright, here's another compound for you.
Query: Look up inhibition at 30 µM: COCCN(C)c1ccc(N(C)C(=O)c2nc(-c3ccccc3)oc2C(F)(F)F)cn1
Result: 34

###

# targetSystem: UniProt:Q12809
# assayMethodText: Inhibition of human ERG
endpoint: IC20

Query: Look up IC20: COCCN(C)c1ccc(NC(=O)c2nc(-c3ccccc3)oc2C(F)(F)F)cn1
Result: 200 nM

###

# targetSystem: Cytochrome P450 3A4 (Homo sapiens)
# Sequence (P08684 whole entry): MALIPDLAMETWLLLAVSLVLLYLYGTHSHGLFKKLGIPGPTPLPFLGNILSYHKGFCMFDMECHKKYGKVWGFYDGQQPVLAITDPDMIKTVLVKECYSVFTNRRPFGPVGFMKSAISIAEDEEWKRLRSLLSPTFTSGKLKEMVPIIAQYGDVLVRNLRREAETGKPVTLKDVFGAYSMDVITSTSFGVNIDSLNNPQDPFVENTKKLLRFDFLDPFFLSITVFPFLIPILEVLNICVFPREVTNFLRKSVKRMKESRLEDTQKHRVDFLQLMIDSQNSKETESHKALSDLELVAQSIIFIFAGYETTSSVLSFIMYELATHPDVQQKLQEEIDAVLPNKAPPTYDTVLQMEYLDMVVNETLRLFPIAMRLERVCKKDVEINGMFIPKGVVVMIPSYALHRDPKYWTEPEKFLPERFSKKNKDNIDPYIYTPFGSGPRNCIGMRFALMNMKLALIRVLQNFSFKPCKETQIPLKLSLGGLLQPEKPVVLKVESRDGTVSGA
pIC50: −log10 of the molar value.
endpoint: pIC50

Query: Lookup: pIC50 / Cytochrome P450 3A4 (Homo sapiens) / O=C(Nc1ccc(C2CCN(C(=O)[C@H]3CC[C@H](C(=O)O)CC3)CC2)cc1)c1nc(-c2ccccc2)oc1C(F)(F)F
Result: < 4.30

###

# targetSystem: UniProt:O75907
# Sequence (O75907 whole entry): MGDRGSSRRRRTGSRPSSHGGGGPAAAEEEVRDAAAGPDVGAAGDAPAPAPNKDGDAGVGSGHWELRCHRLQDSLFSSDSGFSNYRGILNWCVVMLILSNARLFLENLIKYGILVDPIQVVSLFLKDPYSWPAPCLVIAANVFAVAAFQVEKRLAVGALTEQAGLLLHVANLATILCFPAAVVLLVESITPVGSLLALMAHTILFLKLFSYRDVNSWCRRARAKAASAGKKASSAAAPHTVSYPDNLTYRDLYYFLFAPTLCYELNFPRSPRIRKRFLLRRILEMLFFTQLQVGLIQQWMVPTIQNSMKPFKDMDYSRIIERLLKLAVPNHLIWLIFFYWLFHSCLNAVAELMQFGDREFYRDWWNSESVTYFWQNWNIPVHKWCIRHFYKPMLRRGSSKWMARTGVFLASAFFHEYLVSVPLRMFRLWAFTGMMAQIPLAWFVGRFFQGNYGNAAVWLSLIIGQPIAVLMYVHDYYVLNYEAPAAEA
# assayMethodText: Inhibition of human DGAT1 expressed in CHO-K1 cells after 1 hr using 14C palmitic acid
endpoint: pEC50
// returns pEC50 (minus log10 of molar concentration), number only

Examples with their reported pEC50 follow.
Query: Look up pEC50: O=C(Nc1ccc(N2CC(F)(F)C2)nc1)c1nc(-c2ccccc2)oc1C(F)(F)F
Result: 4.60

Query: Look up pEC50: O=C(Nc1ccc(C2CCN(C(=O)[C@H]3CC[C@@H](C(=O)O)CC3)CC2)cc1)c1nc(-c2ccccc2)oc1C(F)(F)F
Result: 6.66

Alright, here's another molecule for you.
Query: Look up pEC50: O=C(Nc1ccc(C2CCN(C(=O)[C@H]3CC[C@H](C(=O)O)CC3)CC2)cc1)c1nc(-c2ccccc2)oc1C(F)(F)F
Result: 6.31

###

# targetSystem: Cytochrome P450 2C19 (Homo sapiens)
# Sequence (P33261 whole entry): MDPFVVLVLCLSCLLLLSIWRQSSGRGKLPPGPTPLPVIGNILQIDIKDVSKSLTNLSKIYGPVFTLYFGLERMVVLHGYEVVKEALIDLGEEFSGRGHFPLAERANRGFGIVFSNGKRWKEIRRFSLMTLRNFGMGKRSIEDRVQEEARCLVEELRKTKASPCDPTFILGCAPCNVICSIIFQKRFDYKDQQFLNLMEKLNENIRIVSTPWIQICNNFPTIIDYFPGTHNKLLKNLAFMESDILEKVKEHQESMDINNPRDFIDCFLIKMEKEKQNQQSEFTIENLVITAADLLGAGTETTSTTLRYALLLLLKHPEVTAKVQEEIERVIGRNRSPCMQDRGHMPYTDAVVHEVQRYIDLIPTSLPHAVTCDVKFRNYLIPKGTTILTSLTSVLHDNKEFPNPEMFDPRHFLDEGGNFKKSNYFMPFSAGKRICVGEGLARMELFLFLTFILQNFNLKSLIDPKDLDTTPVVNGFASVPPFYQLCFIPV
endpoint: IC50

Query: Lookup: IC50 / Cytochrome P450 2C19 (Homo sapiens) / O=C(Nc1ccc(C2CCN(C(=O)[C@H]3CC[C@H](C(=O)O)CC3)CC2)cc1)c1nc(-c2ccccc2)oc1C(F)(F)F
Result: > 50 µM

###

# assayMethodText: Half life in Beagle dog at 5 mg/kg, iv
# Assay type: ADME, organism-based, Canis lupus familiaris
# Parameters: dose 5 mg/kg, route intravenous
# conditionDetails: in vivo
endpoint: half-life (h)
Write down the numeric answer in h and omit the unit.

Query: Look up half-life: O=C(Nc1ccc(C2CCN(C(=O)[C@H]3CC[C@H](C(=O)O)CC3)CC2)cc1)c1nc(-c2ccccc2)oc1C(F)(F)F
Result: 5.3

###

# assayMethodText: Extrapolated AUC in Hanover Wistar rat at 10 mg/kg, po
# Type: ADME, organism-based
# Parameters: dose 10 mg/kg, route oral
# conditionDetails: in vivo
endpoint: AUC

Query: Look up AUC: O=C(Nc1ccc(C2CCN(C(=O)[C@H]3CC[C@H](C(=O)O)CC3)CC2)cc1)c1nc(-c2ccccc2)oc1C(F)(F)F
Result: 567 µM·h

###

# targetSystem: hERG (Homo sapiens, UniProt Q12809)
# assayMethodText: Inhibition of human ERG-mediated current expressed in CHO cells by patch clamp method
# Assay type: cell-based
# conditionDetails: CHO cells expressing human ERG
log10 IC20 values, listed per item
Would you kindly interpret these values as log10 of IC20 expressed in µM?

Examples with their reported log10 IC20 follow.
Query: Look up log10 IC20: O=C(Nc1ccc(C2CCN(C(=O)C3CC3)CC2)nc1)c1nc(-c2ccccc2)oc1C(F)(F)F
Result: 0.24

Query: Look up log10 IC20: O=C(Nc1cnc(N2CC[C@H](O)C2)nc1)c1nc(-c2ccccc2)oc1C(F)(F)F
Result: 1.00

Query: Look up log10 IC20: O=C(Nc1ccc(N2CCN(C(=O)C3CC3)CC2)nc1)c1nc(-c2ccccc2)oc1C(F)(F)F
Result: -0.74

Query: Look up log10 IC20: COC(=O)N1CCN(c2ccc(NC(=O)c3nc(-c4ccccc4)oc3C(F)(F)F)cn2)CC1
Result: 0.29

Query: Look up log10 IC20: COCCN(C)c1ncc(NC(=O)c2nc(-c3ccccc3)oc2C(F)(F)F)cn1
Result: 0.18

Alright, here's another molecule for you.
Query: Look up log10 IC20: O=C(Nc1ccc(C2CCN(C(=O)[C@H]3CC[C@H](C(=O)O)CC3)CC2)cc1)c1nc(-c2ccccc2)oc1C(F)(F)F
Result: 1.48
